B1: POU domain, class 2, transcription factor 3, residues 186 to 260; numbered along this chain, Q9UKI9 (parent)
chain: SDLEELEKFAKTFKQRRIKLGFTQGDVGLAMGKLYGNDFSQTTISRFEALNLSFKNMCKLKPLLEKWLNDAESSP

- Variants of: B1
- RUN DESCRIPTION: abundance fitness (aPCA) (normalised: wild type 0, dead -1); higher = more abundant; growth selection in yeast, the domain comes from the species named
- ASSAY CONTEXT: Homo sapiens
// abundance fitness lookup, one value per entry

Worked set:
MUTATIONS: T12N
abundance fitness: 0.063

MUTATIONS: K61W
abundance fitness: -0.181

MUTATIONS: Y35F
abundance fitness: -0.182

MUTATIONS: T12Q
abundance fitness: 0.01

MUTATIONS: S74I
abundance fitness: -0.033

MUTATIONS: N37V
abundance fitness: -0.027

Ask: I would be grateful if you could share the reported abundance fitness for P62H .
Reply: -0.025

Ask: I would be grateful if you could share the reported abundance fitness for L52E .
Reply: -0.131

Ask: I would be grateful if you could share the reported abundance fitness for E72G .
Reply: -0.089

Ask: I would be grateful if you could share the reported abundance fitness for E65Q .
Reply: -0.109

FYI, the data here is from the Human Domainome abundance scans (Beltran et al. 2025).
